- target.under.test: Cytochrome P450 2C19 (Homo sapiens)
- measurement.notes: blockers of cytochrome P450 2C19 activity – biochemical, luminescence, ADME assay, primary screen (AID 778);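 also: plate controls were negative control wells for no effect and 2.5 mM tranylcypromine positive control for full effect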
- stated.conditions: CYP2C19 Supersomes, luciferin-H EGE luminescence, 30 min; at 5 µM; stronger effect = higher value
In all, about 96,000 compounds went through this assay and about 20,000 (21%) were called active. A selection follows.
Entries are grouped by inhibition into these classes: category 1: < 20%; category 2: ≥ 20% and < 70%; category 3: ≥ 70%

Record excerpt, results attached:
molecule	group.label
Cc1nnc(N(Cc2ccco2)C(=O)c2ccno2)s1	category 3
Cc1cccc(NC(=O)CN2CCCN(S(=O)(=O)c3ccc(Br)s3)CC2)c1	category 2
COc1ccccc1N1CCN(C(=O)c2ccc(S(=O)(=O)N3CCCCC3)cc2)CC1	category 2
COc1ccccc1N1CCN(C(=O)c2c(-c3c(Cl)cccc3Cl)noc2C)CC1	category 3
CCOC(=O)C1=C(C)NC(C)=C(C(=O)OCC)C1C1=COCCO1	category 3
Cc1cccc(NC(=O)CN2C(=O)CNC2=O)c1	category 1

Q: Form field 'band' for `CCc1ccc2nc3sc(C(=O)Nc4nnc(CC)s4)c(N)c3cc2c1`
Result: category 2

Q: Which inhibition band matches `CCOC(=O)c1sc2nc(CSCC(=O)OCc3ccc(C(=O)OC)o3)[nH]c(=O)c2c1C` ?
Result: category 2

Q: Looking at `COCCN(C(=O)c1ccco1)c1nnc(-c2ccc(OC)cc2)s1` , which class would you pick?
Result: category 2

Q: Bin this entry: CCOc1ccccc1C1NC(=O)NC(C)=C1C(=O)OCc1ccco1 (stereo unspecified)
Result: category 1

Q: Assign a bin to `CC(=O)c1sc2nc(SCC(=O)N3CCCCC3)[nH]c(=O)c2c1C`
Result: category 1

----------
Collected inhibition values appear next to each entry.
- target.under.test: Cytochrome P450 2C19 (Homo sapiens)
- measurement.notes: blockers of cytochrome P450 2C19 activity – biochemical, luminescence, ADME assay, primary screen (AID 778);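 also: plate controls were negative control wells for no effect and 2.5 mM tranylcypromine positive control for full effect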
- stated.conditions: CYP2C19 Supersomes, luciferin-H EGE luminescence, 30 min; at 5 µM; stronger effect = higher value
The whole screen tested about 96,000 compounds, of which about 20,000 (21%) were called active. The list is a sample of the results.

Example entries and their recorded answers appear below.
compound	inhibition
COc1ccc(CNC(=O)CCn2cccc2)cc1	35% (inactive)
OC1CN=C2Sc3ccccc3N2C1 (configuration not stated)	-7.4% (inactive)
c1ccc(-c2cn3c(n2)CCc2ccc4cccnc4c2-3)cc1	15.9% (inactive)
Cc1ccc(-c2ccc(=O)n(CC(=O)NCCCN3CCCCC3)n2)cc1	6.9% (inactive)
Fc1ccc(Br)cc1/C=N/n1cnnc1	13.9% (inactive)

Q: Please look up its inhibition: `O=C(Nc1ccc2c(c1)OCCO2)c1cnccn1`
Result: 14.5% (inactive)

Q: Can you look up the measured inhibition of CCC1SC2=NCCN2C1(O)c1ccc(Cl)cc1 (configuration not stated) for me?
Result: 94.6% (active)

----------
- target.under.test: Cytochrome P450 2C19 (Homo sapiens)
- measurement.notes: blockers of cytochrome P450 2C19 activity – biochemical, luminescence, ADME assay, primary screen (AID 778);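 also: plate controls were negative control wells for no effect and 2.5 mM tranylcypromine positive control for full effect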
- stated.conditions: CYP2C19 Supersomes, luciferin-H EGE luminescence, 30 min; at 5 µM; stronger effect = higher value
Screen size: about 96,000 compounds; about 20,000 (21%) were called active. Only a sample is shown.
Give MET when the value for inhibition is at least 30%. Give NOT MET when it is less.

molecule	group.label
Cc1nn(C)c(Oc2ccccc2)c1CCNS(=O)(=O)c1ccc(F)cc1	MET
CCc1nnc(NC(=O)CSc2nnc(COc3ccc(C#N)cc3)n2-c2ccccc2)s1	NOT MET
Cc1cc2cc3c(cc2nc1SCC(=O)Nc1c(C)cccc1C)CCC3	NOT MET
Cc1nn(C)c(Oc2ccc(Cl)cc2)c1C=O	NOT MET
Cc1ccccc1C(OCC(O)CN1CCCCC1CCO)c1ccccc1 (stereo unspecified)	NOT MET

Q: Please check the record `Cc1n[nH]c(=O)n1-c1ccc(Oc2ccccc2)cc1` and state if its inhibition is at or above 30%.
Result: NOT MET

Q: Check if inhibition >= 30% (inclusive). Item: `Fc1ccccc1CCNc1nnnn1-c1ccccc1`
Result: MET

Q: Is it the case that `CC(C)c1cc(C(N)=O)c(NC(=O)c2cccc(COc3ccc(Br)cc3)c2)s1` has inhibition reaching or exceeding 30%?
Result: NOT MET

Q: Exam item: decide whether the reported inhibition for `c1ccc(-n2nnnc2NC2CCCCCC2)cc1` is at least 30%.
Result: MET

Q: Record COC(=O)C(C)Oc1ccc2c(-c3cccc([N+](=O)[O-])c3)cc(=O)oc2c1 (stereo unspecified) ; criterion: inhibition no lower than 30%. Met?
Result: NOT MET

Q: Please check the record `CC(C)(C)c1ccc(NC(=O)NCc2ccco2)cc1` and state if its inhibition is at or above 30%.
Result: NOT MET
